Assay: total protein half-life in vivo (active degradation + dilution); higher = more stable protein
Conditions: wild type E. coli NCM3722; growth: N-lim chemostat; doubling time 6 h
Returns one of Yes or No; Yes when total protein half-life in vivo is >= 5 h.

Take a look at these entries with their results.
chain-sequence: MSKTFARSSLCALSMTIMTAHAAEPPTNLDKPEGRLDIIAWPGYIERGQTDKQYDWVTQFEKETGCAVNVKTAATSDEMVSLMTKGGYDLVTASGDASLRLIMGKRVQPINTALIPNWKTLDPRVVKGDWFNVGGKVYGTPYQWGPNLLMYNTKTFPTPPDSWQVVFVEQNLPDGKSNKGRVQAYDGPIYIADAALFVKATQPQLGISDPYQLTEEQYQAVLKVLRAQHSLIHRYWHDTTVQMSDFKNEGVVASSAWPYQANALKAEGQPVATVFPKEGVTGWADTTMLHSEAKHPVCAYKWMNWSLTPKVQGDVAAWFGSLPVVPEGCKASPLLGEKGCETNGFNYFDKIAFWKTPIAEGGKFVPYSRWTQDYIAIMGGR
answer-label: Yes

chain-sequence: MKDVVDKCSTKGCAIDIGTVIDNDNCTSKFSRFFATREEAESFMTKLKELAAATSSADEGASVAYKIKDLEGQVELDAAFTFSCQAEMIIFELSLRSLA
answer-label: No

Prompt line: Would you say "MKYQLTALEARVIGCLLEKQVTTPEQYPLSVNGVVTACNQKTNREPVMNLSESEVQEQLDNLVKRHYLRTVSGFGNRVTKYEQRFCNSEFGDLKLSAAEVALITTLLLRGAQTPGELRSRAARMYEFSDMAEVESTLEQLANREDGPFVVRLAREPGKRENRYMHLFSGEVEDQPAVTDMSNAVDGDLQARVEALEIEVAELKQRLDSLLAHLGD" shows total protein half-life in vivo at minimum 5 h?
Response line: No

Prompt line: Ok, now MSALFLAIPLTIFVLFVLPIWLWLHYSNRSGRSELSQSEQQRLAQLADEAKRMRERIQALESILDAEHPNWRDR [P0AFM9]
Response line: Yes

----------
Test: total protein half-life in vivo (active degradation + dilution); higher = more stable protein
Settings: wild type E. coli NCM3722; growth: P-lim chemostat; doubling time 12 h
I'd appreciate it if you could supply total protein half-life in vivo values for the items below.
One number for each entry, in h.

chain-sequence: MRKLTALFVASTLALGAANLAHAADTTTAAPADAKPMMHHKGKFGPHQDMMFKDLNLTDAQKQQIREIMKGQRDQMKRPPLEERRAMHDIIASDTFDKVKAEAQIAKMEEQRKANMLAHMETQNKIYNILTPEQKKQFNANFEKRLTERPAAKGKMPATAE
total protein half-life in vivo (h): 6.54

In the following, a different sequence is considered.
Prompt line: Quick check: total protein half-life in vivo of "MSKKIVLALGGNALGDDLAGQMKAVKITSQAIVDLIAQGHEVIVTHGNGPQVGMINQAFEAAAKTEAHSPMLPMSVCVALSQGYIGYDLQNALREELLSRGINKPVATLVTQVEVDANDPAFLNPTKPIGSFFTEQEAEQLTKQGYTLKEDAGRGYRRVVASPKPVDIIEKETVKALVDAGQVVITVGGGGIPVIREGNHLRGASAVIDKDWASARLAEMIDADMLIILTAVEKVAINFGKENEQWLDRLSLSDAERFIEEGHFAKGSMLPKVEAAASFARSRAGREALITVLSKAKEGIEGKTGTVICQ" ?
Response line: 5.27

Source of measurements: the supplement of paper PMC11246515
